Please find below IC50 data on UniProt:Q00534 compiled from the literature.
Reply with just the number (in nM).

Solved entries (count: 3):
# Structure smiles string, Quantity kind, Units of measure, Numeric readout
rows = [
    ("CCc1nc2c(n1CC)-c1nc(Nc3ccc(N4CCNCC4)cn3)ncc1C2", "IC50", "nM", 706),
    ("CCN1CCN(Cc2ccc(Nc3ncc4c(n3)-c3c(cnn3C(C)C)CC4)nc2)CC1", "IC50", "nM", 132),
    ("CC[C@@H](Nc1nc(NCc2cccnc2)c2ncn(C(C)C)c2n1)C(C)(C)O", "IC50", "nM", 1940),
]

# next compound below
### Prompt Item: CC(C)N1CCOc2c(F)cc(-c3nc(Nc4ccc5c(c4)C(=O)NCC5)ncc3F)cc21 Test system: UniProt:Q00534 Read-out: IC50 Value: ?
### Response 28

---

Here, compounds appear alongside pIC50 reported for Cyclin-dependent kinase 6 (Homo sapiens, UniProt Q00534) in the literature.
Friendly reminder that pIC50 comes from taking -log10 of the concentration in mol/L.

### Prompt What measured pIC50 goes with CCNc1nc(C)c(-c2ccnc(Nc3ccc(CNC(C)=O)cc3)n2)s1 ?
### Response 6.96

### Prompt Would you kindly share the measured pIC50 for CC(C)c1c2c(nn1C(F)F)Cc1cnc(Nc3ccc(N4CCNCC4)cn3)nc1-2 ?
### Response 8.10

### Prompt # input compound: CC1(C)CN(C(=O)c2sc3cnc(Nc4ccc(N5CCNCC5)cn4)cc3c2C2CCCC2)C1 ; wanted: its pIC50
### Response 6.58

### Prompt Suppose we examine the compound CN(C)C(=O)c1sc2cnc(Nc3ccc(N4CCNCC4)cn3)cc2c1C1CC1 ; what pIC50 value has been reported?
### Response 7.68

### Prompt State the recorded pIC50 for this entry: CCN1CCN(c2ccc(Nc3ncc4c(n3)-c3c(cnn3C(C)C)CC4)nc2)CC1
### Response 7.44

### Prompt Param item = CC(C)N1CCOc2c(F)cc(-c3nc(Nc4ccc(N5CCNC(=O)C5)cn4)ncc3F)cc21 ; retrieve measured pIC50.
### Response 7.59

### Prompt # pIC50 lookup, item CC(C)N1CCOc2c(F)cc(-c3nc(Nc4ccc(C5CCN(C)CC5)cn4)ncc3F)cc21
### Response 9.00

### Prompt // query pIC50 value for entry CC(C)c1[nH]nc2c1-c1nc(Nc3ccc(N4CCNCC4)cn3)ncc1CC2
### Response 7.77

### Prompt Name the reported pIC50 value associated with the compound CC(C)N1CCOc2c(F)cc(-c3nc(Nc4ccc(S(=O)(=O)NC5CCNCC5)cc4)ncc3F)cc21
### Response 7.39

### Prompt Which pIC50 value is on record for CC(C)N1CCOc2c(F)cc(-c3nc(Nc4ccc5c(c4)CC(N(C)C)CC5)ncc3F)cc21 (stereo not shown) ?
### Response 7.00

---

pIC50: −log10 of the molar value.
Assay read-out pIC50 on Cyclin-dependent kinase 6 (Homo sapiens); records merged from the literature.

Here's what some known entries look like.
# Compound, Result
records = [
    ("CC(C)n1c(C(=O)N(C)C)cc2c(F)c(-c3nc(Nc4ccc(N5CCNCC5)cn4)ncc3F)ccc21", "7.00 to 7.70"),
    ("NC(=O)C1Oc2cnc(Nc3ccc(N4CCNCC4)cn3)nc2N(C2CCCC2)C1=O (stereo not shown)", "≥ 7.70"),
    ("CCN1CCN(Cc2ccc(Nc3ncc(F)c(-c4ccc5c(c4)cc(C(=O)N(C)C)n5C4CCCC4)n3)nc2)CC1", "≥ 7.70"),
    ("CC1(C)Sc2cnc(Nc3ccc(N4CCN(C5CCCCCC5)CC4)cn3)nc2N(C2CCCC2)C1=O", "≥ 7.70"),
    ("CC1(C)Oc2cnc(Nc3ccc(N4CCNCC4)cn3)nc2N(c2ccc(Cl)cc2)C1=O", "≥ 7.70"),
    ("CC(=O)c1c(C)c2cnc(Nc3ccc(C4CCN(CCS(=O)(=O)c5ccc(Cl)cc5)CC4)cn3)nc2n(C2CCCC2)c1=O", "< 6.30"),
]

### Prompt # get_value(readout= pIC50, system= Cyclin-dependent kinase 6 (Homo sapiens)) for CC(=O)c1cc2cc(-c3nc(Nc4ccc(N5CCNCC5)cn4)ncc3F)ccc2n1C(C)C
### Response ≥ 7.70
